Target: EGFR wildtype (Homo sapiens)
Assay: Biochemical EGFR kinase assay (Lance Ultra TR-FRET), wildtype
Settings: IC50 WT (nM) 100 μM ATP, 100 μM ATP
Recorded IC50 by entry

Worked cases, IC50 given:
C[C@]1(O)CC[C@@H](Nc2cc(Nc3ccnc(-c4cnn(S(=O)(=O)C5CC5)c4)n3)ncc2-c2cc(N3CCOCC3)ccn2)CC1 = > 10000 nM
CC(C)(O)[C@H]1CC[C@@H](Nc2cc(Nc3ccnc(-c4cnn(S(=O)(=O)C5CC5)c4)n3)ncc2-c2ccc(CO)cn2)CC1 = > 10000 nM
C[C@]1(O)CC[C@@H](Nc2cc(Nc3ccnc(-c4cnn(S(=O)(=O)C5CC5)c4)n3)ncc2-c2ccc(F)cn2)CC1 = > 10000 nM
C[C@]1(O)CC[C@@H](Nc2cc(Nc3ccnc(-c4cnn(S(=O)(=O)C5CC5)c4)n3)ncc2-c2cc(CN3CCC(F)(F)CC3)ccn2)CC1 = > 10000 nM

// query Quick check: IC50 of `O=S(=O)(C1CC1)n1cc(-c2nccc(Nc3cc(N[C@H]4CC[C@H](CCO)CC4)c(-c4ccc(C(F)F)cn4)cn3)n2)cn1` ?
// result > 10000 nM

// query Quick check: IC50 of `C[C@]1(O)CC[C@@H](Nc2cc(Nc3ccnc(-c4cnn(S(=O)(=O)C5CC5)c4)n3)ncc2-c2ccc(N3CCC(F)(F)CC3)cn2)CC1` ?
// result > 10000 nM

// query Quick check: IC50 of `CN1CCN(c2ccc(-c3cnc(Nc4ccnc(-c5cnn(S(=O)(=O)C6CC6)c5)n4)cc3N[C@H]3CC[C@@](C)(O)CC3)nn2)CC1` ?
// result > 10000 nM

// query Quick check: IC50 of `C[C@]1(O)CC[C@@H](Nc2cc(Nc3ccnc(-c4cnn(S(=O)(=O)C5CC5)c4)n3)ncc2-c2ccc(N3CC4(COC4)C3)nn2)CC1` ?
// result > 10000 nM

// query Quick check: IC50 of `C[C@]1(O)CC[C@@H](Nc2cc(Nc3ccnc(-c4cnn(S(=O)(=O)C5CC5)c4)n3)ncc2-c2cccc(CN3CCOCC3)n2)CC1` ?
// result > 10000 nM

----------
Recorded IC50 by entry
Target: EGFR wildtype (Homo sapiens)
Test: Biochemical EGFR kinase assay (Lance Ultra TR-FRET), wildtype
Conditions: Km ATP; read-out: IC50 WT (nM) Km ATP
The reply should be a number in nM, with the unit left off.

CC1(O)CCC(Nc2cc(Nc3ccnc(-c4cnn(S(=O)(=O)C5CC5)c4)n3)ncc2-c2cnc(OC3CCOC3)cn2)CC1 (stereo not drawn) = 11.2

// query Quick check: IC50 of `O=S(=O)(C1CC1)n1cc(-c2nccc(Nc3cc(N[C@H]4CC[C@@H](NCCF)CC4)c(-c4ccc(CO)cn4)cn3)n2)cn1` ?
// result 6.3

// query Quick check: IC50 of `C[C@]1(O)CC[C@@H](Nc2cc(Nc3ccnc(-c4cnn(S(=O)(=O)C5CC5)c4)n3)ncc2-c2ccc(N3CC4(COC4)C3)nn2)CC1` ?
// result 3.7

----------
Target: EGFR wildtype (Homo sapiens, UniProt P00533)
Sequence (P00533 25-1210): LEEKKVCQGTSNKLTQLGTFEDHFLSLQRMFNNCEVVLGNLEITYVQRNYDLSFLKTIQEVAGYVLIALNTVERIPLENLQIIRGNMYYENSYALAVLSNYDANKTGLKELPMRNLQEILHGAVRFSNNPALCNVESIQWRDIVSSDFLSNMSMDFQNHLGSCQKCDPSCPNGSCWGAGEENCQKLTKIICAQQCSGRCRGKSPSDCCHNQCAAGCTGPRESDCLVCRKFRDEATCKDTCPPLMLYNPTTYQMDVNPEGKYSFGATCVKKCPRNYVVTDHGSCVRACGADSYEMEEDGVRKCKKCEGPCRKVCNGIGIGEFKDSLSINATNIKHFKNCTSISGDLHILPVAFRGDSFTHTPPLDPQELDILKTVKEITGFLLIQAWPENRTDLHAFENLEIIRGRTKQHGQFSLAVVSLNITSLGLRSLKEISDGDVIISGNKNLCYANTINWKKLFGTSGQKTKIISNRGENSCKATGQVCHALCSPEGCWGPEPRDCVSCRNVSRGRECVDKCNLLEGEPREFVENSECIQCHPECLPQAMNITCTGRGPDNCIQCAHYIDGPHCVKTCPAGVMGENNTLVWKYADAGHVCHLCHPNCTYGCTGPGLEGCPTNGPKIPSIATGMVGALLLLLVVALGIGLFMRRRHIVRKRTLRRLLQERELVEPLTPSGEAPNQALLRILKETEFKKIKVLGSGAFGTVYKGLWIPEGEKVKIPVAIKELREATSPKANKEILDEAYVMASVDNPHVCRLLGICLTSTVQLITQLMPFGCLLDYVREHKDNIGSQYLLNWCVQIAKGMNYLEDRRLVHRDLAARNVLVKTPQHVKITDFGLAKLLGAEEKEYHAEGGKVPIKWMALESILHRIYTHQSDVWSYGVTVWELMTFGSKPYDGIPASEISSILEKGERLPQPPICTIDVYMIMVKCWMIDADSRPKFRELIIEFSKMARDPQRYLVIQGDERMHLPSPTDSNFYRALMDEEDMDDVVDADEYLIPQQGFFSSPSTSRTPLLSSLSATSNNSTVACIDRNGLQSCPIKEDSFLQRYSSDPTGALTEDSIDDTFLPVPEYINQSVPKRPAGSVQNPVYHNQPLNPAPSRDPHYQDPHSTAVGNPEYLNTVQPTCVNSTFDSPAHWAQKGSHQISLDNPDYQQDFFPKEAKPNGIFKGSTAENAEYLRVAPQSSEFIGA
Experiment: Biochemical EGFR kinase assay (Lance Ultra TR-FRET), wildtype
Settings: Km ATP; read-out: IC50 WT (nM) Km ATP
Measured Property: IC50 (nM)
The reply should be a number in nM, with the unit left off.

Worked cases, IC50 given:
CC(O)c1cccc(-c2cnc(Nc3ccnc(-c4cnn(S(=O)(=O)C5CC5)c4)n3)cc2NC2CCC(C)(O)CC2)n1 (stereo not shown) [Example 23] = 13.7
O=S(=O)(C1CC1)n1cc(-c2nccc(Nc3cc(N[C@H]4CC[C@](O)(CO)CC4)c(-c4ccccn4)cn3)n2)cn1 [Example 37] = 6.6
O=S(=O)(C1CC1)n1cc(-c2nccc(Nc3cc(N[C@H]4CC[C@@H](CO)CC4)c(-c4cc(N5CCC(F)(F)CC5)ccn4)cn3)n2)cn1 [Example 100] = 12.7

// query Quick check: IC50 of O=S(=O)(C1CC1)n1cc(-c2nccc(Nc3cc(N[C@H]4CC[C@@H](F)CC4)c(-c4ccc(N5CCOCC5)cn4)cn3)n2)cn1 [Example 123] ?
// result 22

----------
Target: EGFR wildtype (Homo sapiens)
Experiment: Biochemical EGFR kinase assay (Lance Ultra TR-FRET), wildtype
Conditions: Km ATP; read-out: IC50 WT (nM) Km ATP
Recorded IC50 by entry
The reply should be a number in nM, with the unit left off.

// query Quick check: IC50 of `CN1CCC(Oc2ccc(-c3cnc(Nc4ccnc(-c5cnc6c(c5)CCCO6)n4)cc3N[C@H]3CC[C@@](C)(O)CC3)nc2)CC1` ?
// result 17.1

// query Quick check: IC50 of `CC(C)(O)c1ccc(-c2cnc(Nc3ccnc(-c4cnn(S(=O)(=O)C5CC5)c4)n3)cc2N[C@H]2CC[C@@H](C(C)(C)O)CC2)nn1` ?
// result 15.3

----------
Recorded IC50 by entry
Molecular target: EGFR L858R/C797S (Homo sapiens, UniProt P00533, C797S/L858R)
Sequence (P00533 25-1210 C797S/L858R): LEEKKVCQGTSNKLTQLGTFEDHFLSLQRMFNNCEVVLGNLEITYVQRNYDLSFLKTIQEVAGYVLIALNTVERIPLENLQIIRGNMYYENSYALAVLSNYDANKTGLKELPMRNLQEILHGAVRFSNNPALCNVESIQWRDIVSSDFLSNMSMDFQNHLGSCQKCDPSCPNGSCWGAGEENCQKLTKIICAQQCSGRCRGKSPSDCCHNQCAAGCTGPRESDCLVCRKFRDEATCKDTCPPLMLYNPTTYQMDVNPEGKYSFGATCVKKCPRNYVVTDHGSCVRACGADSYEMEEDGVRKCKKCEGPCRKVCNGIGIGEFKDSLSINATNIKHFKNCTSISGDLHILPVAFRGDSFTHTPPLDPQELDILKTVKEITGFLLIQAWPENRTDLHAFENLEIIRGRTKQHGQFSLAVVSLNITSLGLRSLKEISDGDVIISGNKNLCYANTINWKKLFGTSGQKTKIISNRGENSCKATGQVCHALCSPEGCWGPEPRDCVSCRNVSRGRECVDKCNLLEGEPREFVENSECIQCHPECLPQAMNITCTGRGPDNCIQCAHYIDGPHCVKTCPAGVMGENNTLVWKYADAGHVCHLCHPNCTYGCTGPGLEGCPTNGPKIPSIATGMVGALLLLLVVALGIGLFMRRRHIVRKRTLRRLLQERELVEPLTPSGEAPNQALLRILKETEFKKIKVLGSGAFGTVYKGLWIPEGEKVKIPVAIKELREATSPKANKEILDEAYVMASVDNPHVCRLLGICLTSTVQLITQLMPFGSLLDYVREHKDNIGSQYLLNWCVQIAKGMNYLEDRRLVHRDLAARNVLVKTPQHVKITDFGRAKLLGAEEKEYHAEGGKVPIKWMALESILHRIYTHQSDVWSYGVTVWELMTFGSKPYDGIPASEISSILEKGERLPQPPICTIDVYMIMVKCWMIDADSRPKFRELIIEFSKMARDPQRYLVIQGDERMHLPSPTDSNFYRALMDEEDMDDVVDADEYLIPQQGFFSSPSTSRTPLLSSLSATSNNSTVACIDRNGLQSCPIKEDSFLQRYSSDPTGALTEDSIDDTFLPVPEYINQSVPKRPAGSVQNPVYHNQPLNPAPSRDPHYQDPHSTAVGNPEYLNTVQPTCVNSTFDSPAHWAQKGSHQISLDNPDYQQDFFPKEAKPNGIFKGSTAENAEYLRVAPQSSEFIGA
Assay: Biochemical EGFR kinase assay (Lance Ultra TR-FRET), double mutant L858R/C797S
Details: Km ATP; read-out: IC50 L858R/C797S (nM) Km ATP
The reply should be a number in nM, with the unit left off.

Worked cases, IC50 given:
CC(C)(O)c1ccnc(-c2cnc(Nc3ccnc(-c4cnn(S(=O)(=O)C5CC5)c4)n3)cc2N[C@H]2CC[C@@](C)(O)CC2)c1 [Example 108] = 0.4
O=S(=O)(C1CC1)n1cc(-c2nccc(Nc3cc(N[C@H]4CC[C@@H](CO)CC4)c(-c4ccc(N5CCCC5)cn4)cn3)n2)cn1 [Example 81] = 3.3
CN(C)C[C@H]1CC[C@@H](Nc2cc(Nc3ccnc(-c4cnn(S(=O)(=O)C5CC5)c4)n3)ncc2-c2cc(C(C)(C)O)ccn2)CC1 [Example 110] = 0.04

Turning to the following molecule.
// query Quick check: IC50 of CC(C)(O)[C@H]1CC[C@@H](Nc2cc(Nc3ccnc(-c4cnn(S(=O)(=O)C5CC5)c4)n3)ncc2-c2ccc(CN3CCOCC3)cn2)CC1 [Example 25] ?
// result 0.3

----------
Molecular target: EGFR del19/T790M/C797S (Homo sapiens, UniProt P00533, C797S/DEL746-750/T790M)
Sequence (P00533 with tags, fused parts or gaps DEL746-750/T790M/C797S): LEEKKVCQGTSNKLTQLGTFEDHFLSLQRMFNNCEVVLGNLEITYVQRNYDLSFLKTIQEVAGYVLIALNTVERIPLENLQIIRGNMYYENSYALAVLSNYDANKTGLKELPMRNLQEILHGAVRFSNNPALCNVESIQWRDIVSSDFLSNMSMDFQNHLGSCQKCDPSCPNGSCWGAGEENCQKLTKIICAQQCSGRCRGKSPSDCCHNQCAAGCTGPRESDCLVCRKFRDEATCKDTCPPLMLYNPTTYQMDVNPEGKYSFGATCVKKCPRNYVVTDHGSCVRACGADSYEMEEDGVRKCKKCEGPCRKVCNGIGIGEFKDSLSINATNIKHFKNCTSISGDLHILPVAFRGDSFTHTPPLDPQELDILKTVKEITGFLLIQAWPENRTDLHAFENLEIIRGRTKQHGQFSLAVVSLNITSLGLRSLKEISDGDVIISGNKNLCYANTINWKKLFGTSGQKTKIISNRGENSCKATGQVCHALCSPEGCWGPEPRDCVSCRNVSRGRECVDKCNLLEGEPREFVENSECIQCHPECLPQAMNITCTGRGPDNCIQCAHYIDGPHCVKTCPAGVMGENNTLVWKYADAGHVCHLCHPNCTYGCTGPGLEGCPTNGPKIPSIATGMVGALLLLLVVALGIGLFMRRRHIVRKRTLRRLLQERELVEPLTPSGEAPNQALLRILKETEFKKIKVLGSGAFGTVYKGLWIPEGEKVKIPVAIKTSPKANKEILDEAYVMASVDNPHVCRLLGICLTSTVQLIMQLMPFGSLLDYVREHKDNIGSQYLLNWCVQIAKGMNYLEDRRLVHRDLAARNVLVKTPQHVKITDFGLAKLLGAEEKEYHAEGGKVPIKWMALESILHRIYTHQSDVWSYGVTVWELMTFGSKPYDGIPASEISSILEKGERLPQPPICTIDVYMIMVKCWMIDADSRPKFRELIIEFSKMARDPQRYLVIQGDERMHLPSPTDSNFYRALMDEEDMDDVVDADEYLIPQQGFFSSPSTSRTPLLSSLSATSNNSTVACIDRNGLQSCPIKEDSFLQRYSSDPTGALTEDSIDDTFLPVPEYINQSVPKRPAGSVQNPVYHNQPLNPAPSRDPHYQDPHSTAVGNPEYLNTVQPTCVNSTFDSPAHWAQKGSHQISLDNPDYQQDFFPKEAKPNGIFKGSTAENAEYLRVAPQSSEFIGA
Experiment: Biochemical EGFR kinase assay (Lance Ultra TR-FRET), triple mutant del19/T790M/C797S
Conditions: Km ATP; read-out: IC50 del19/T790M/C797S (nM) Km ATP
Recorded IC50 by entry
The reply should be a number in nM, with the unit left off.

CN(C)c1ccc(-c2cnc(Nc3ccnc(-c4cnn(S(=O)(=O)C5CC5)c4)n3)cc2N[C@H]2CC[C@@](C)(O)CC2)nc1 [Example 40] = 0.7
FC(F)Cn1cc(-c2nccc(Nc3cc(N[C@H]4CC[C@@H](F)CC4)c(-c4ccc(N5CCOCC5)cn4)cn3)n2)cn1 [Example 137] = 1.1
CN(C)C[C@H]1CC[C@@H](Nc2cc(Nc3ccnc(-c4cnn(S(=O)(=O)C5CC5)c4)n3)ncc2-c2cc(C(F)F)ccn2)CC1 [Example 79] = 0.8

// query For the record COc1c(F)ccnc1-c1cnc(Nc2ccnc(-c3cnn(S(=O)(=O)C4CC4)c3)n2)cc1N[C@H]1CC[C@@](C)(O)CC1 [Example 335] , what value of IC50 is listed for EGFR del19/T790M/C797S (Homo sapiens, UniProt P00533, C797S/DEL746-750/T790M)?
// result 5.8

----------
Recorded IC50 by entry
Molecular target: EGFR wildtype (Homo sapiens, UniProt P00533)
Assay: Biochemical EGFR kinase assay (Lance Ultra TR-FRET), wildtype
Conditions: ATP at Km; read-out: IC50 WT, Km ATP
The reply should be a number in nM, with the unit left off.

// query For the record CN1CCC(Oc2ccc(-c3cnc(Nc4ccnc(-c5cnn(S(=O)(=O)C6CC6)c5)n4)cc3NC3CCCN(CCF)C3)nc2)CC1 (stereo not shown) [Example 257] , what value of IC50 is listed for EGFR wildtype (Homo sapiens, UniProt P00533)?
// result 7.4

// query For the record CN1CCC(Oc2ccc(-c3cnc(Nc4ccnc(-c5cnn(S(=O)(=O)C6CC6)c5)n4)cc3N[C@H]3CC[C@@H](CO)CC3)nc2)CC1 [Example 251] , what value of IC50 is listed for EGFR wildtype (Homo sapiens, UniProt P00533)?
// result 0.2

----------
Recorded IC50 by entry
Target: EGFR L858R/C797S (Homo sapiens, UniProt P00533, C797S/L858R)
Test: Biochemical EGFR kinase assay (Lance Ultra TR-FRET), double mutant L858R/C797S
Settings: IC50 L858R/C797S (nM) 100 μM ATP, 100 μM ATP
The reply should be a number in nM, with the unit left off.

CN1CCN(c2ccc(-c3cnc(Nc4ccnc(-c5cnn(S(=O)(=O)C6CC6)c5)n4)cc3N[C@H]3CC[C@@H](C(C)(C)O)CC3)nc2)CC1 [Example 84] = 0.5
CC(C)N1CCN(Cc2ccc(-c3cnc(Nc4ccnc(-c5cnn(S(=O)(=O)C6CC6)c5)n4)cc3N[C@H]3CC[C@@](C)(O)CC3)nc2)CC1 [Example 34] = 0.2
CC(C)(O)c1ccc(-c2cnc(Nc3ccnc(-c4cnn(S(=O)(=O)C5CC5)c4)n3)cc2N[C@H]2CC[C@@H](C(C)(C)O)CC2)nn1 [Example 88] = 31.1
CN(C)c1ccc(-c2cnc(Nc3ccnc(-c4cnn(S(=O)(=O)C5CC5)c4)n3)cc2N[C@H]2CC[C@@](C)(O)CC2)nc1 [Example 40] = 7.7

// query Quick check: IC50 of CC(C)(O)[C@H]1CC[C@@H](Nc2cc(Nc3ccnc(-c4cnn(S(=O)(=O)C5CC5)c4)n3)ncc2-c2ccc(N3CCCC3)cn2)CC1 [Example 82] ?
// result 73.3

These measurements were taken from patent US12258328B2.
